test: Human liver microsome stability
Type: in vitro ADME
conditions: human liver microsomes, pH 7.4
Record form. Attribute: microsomal CLint at 0.99 µM. Fill in for each entry.
Value expressed in µL/min/mg; do not type the unit.

Summary for this molecule, NC(=O)c1cc(Cc2ccnc(NS(=O)(=O)NC34CC(C3)C4)c2F)c(F)c(F)c1Nc1ccc(I)cc1F [Compound A-28] : microsomal CLint at 0.99 µM is 11

For this molecule ( CNS(=O)(=O)Nc1cccc(Cc2cc(C(=O)NC3CC3)c(Nc3ccc(I)cc3F)c(F)c2F)c1F [Compound D-6] ), measured microsomal CLint at 0.99 µM is 34

Given item CNS(=O)(=O)Nc1nccc(Cc2cc(C(N)=O)c(Nc3ccc4sccc4c3)c(F)c2F)c1F [Compound H-2] , the value recorded as its microsomal CLint at 0.99 µM is 77

response.value for CC(C)S(=O)(=O)Nc1cccc(Cc2cc(C(N)=O)c(Nc3ccc(I)cc3F)c(F)c2F)c1F [Compound E-24] (field: microsomal CLint at 0.99 µM) = 10

Per the record, COCCS(=O)(=O)Nc1cccc(Cc2cc(C(N)=O)c(Nc3ccc(I)cc3F)c(F)c2F)c1 [Compound F-3] has microsomal CLint at 0.99 µM of 28

Entry NC(=O)c1cc(Cc2ccnc(NS(=O)(=O)NC3CCOCC3)c2F)c(F)c(F)c1Nc1ccc(I)cc1F [Compound A-29] , microsomal CLint at 0.99 µM reported as 18

The molecule identified as NC(=O)c1cc(Cc2ccnc(NS(=O)(=O)NC3CC3)c2F)c(F)c(F)c1Nc1ccc(I)cc1Cl [Compound B-11] registered its microsomal CLint at 0.99 µM at 26

Recorded microsomal CLint at 0.99 µM (molecule CNS(=O)(=O)Nc1nccc(Cc2cc(C(=O)NOC(C)C)c(Nc3ccc(I)cc3F)c(F)c2F)c1F [Compound A-10] ): 89

Briefly, microsomal CLint at 0.99 µM measured for C#Cc1ccc(Nc2c(C(N)=O)cc(Cc3ccnc(NS(=O)(=O)NCCC)c3F)c(F)c2F)c(F)c1 [Compound A-20] : 14

Sample Cn1c(Nc2ccc(I)cc2F)c(C(N)=O)cc(Cc2cccc(NS(=O)(=O)C3(C)CC3)c2F)c1=O [Compound K-6] ; microsomal CLint at 0.99 µM observed: 499

Per the record, CNS(=O)(=O)Nc1nccc(Cc2cc(C(=O)NOC(C)(C)C)c(Nc3ccc(I)cc3F)n(C)c2=O)c1F [Compound J-10] has microsomal CLint at 0.99 µM of 28

Reported microsomal CLint at 0.99 µM ( CC1(NS(=O)(=O)Nc2cccc(Cc3cc(C(N)=O)c(Nc4ccc(I)cc4F)c(F)c3F)c2F)CCC1 [Compound D-9] ) = 53

Lab note: NC(=O)c1cc(Cc2cccc(NS(=O)(=O)C3CCC3)c2F)c(F)c(F)c1Nc1ccc(I)cc1F [Compound E-20] gave microsomal CLint at 0.99 µM of 18

###

Test system: A549
test: Cell proliferation-inhibiting activity (ATP in viable cells, CellTiter-Glo), A549
Format: cell-based, human
conditions: Homo sapiens, A549, 96 h, read-out: A549 IC50
property.measured: IC50 (nM)
Just the number please, in nM, no unit attached.

Tested system A549; IC50 recorded for `CNS(=O)(=O)Nc1nccc(Cc2cc(C(N)=O)c(Nc3ccc(C4CC4)cc3F)c(F)c2F)c1F` was 26

Reported IC50 (A549) for entry `CNS(=O)(=O)Nc1nccc(Cc2cc(C(N)=O)c(Nc3ccc(SC(F)F)cc3F)c(F)c2F)c1F` is 9

A549 data for `CNS(=O)(=O)Nc1nccc(Cc2cc(C(N)=O)c(Nc3ccc(SC)cc3F)c(F)c2F)c1F` ; its IC50: 5

The molecule `C#Cc1ccc(Nc2c(C(N)=O)cc(Cc3ccnc(NS(=O)(=O)NC)c3F)c(F)c2F)c(F)c1` on A549: IC50 was 7

Reported IC50 (A549) for entry `CNS(=O)(=O)Nc1nccc(Cn2cc(C(N)=O)c(Nc3ccc(SC)cc3F)c(F)c2=O)c1F` is 475

I looked up `C=Cc1ccc(Nc2c(C(N)=O)cc(Cc3ccnc(NS(=O)(=O)NC)c3F)c(F)c2F)c(F)c1` and its IC50 for A549 was 6

Lab entry: A549 assay, molecule `C#Cc1ccc(Nc2c(C(N)=O)cc(Cc3ccnc(NS(=O)(=O)NCCC)c3F)c(F)c2F)c(F)c1` , IC50 = 7
